// data source = ChEMBL document CHEMBL3352252

Kindly state pIC50 for each of the entries shown.
- TARGET: Epidermal growth factor receptor (Homo sapiens)
- Sequence (P00533 whole entry, the tested form may be a part): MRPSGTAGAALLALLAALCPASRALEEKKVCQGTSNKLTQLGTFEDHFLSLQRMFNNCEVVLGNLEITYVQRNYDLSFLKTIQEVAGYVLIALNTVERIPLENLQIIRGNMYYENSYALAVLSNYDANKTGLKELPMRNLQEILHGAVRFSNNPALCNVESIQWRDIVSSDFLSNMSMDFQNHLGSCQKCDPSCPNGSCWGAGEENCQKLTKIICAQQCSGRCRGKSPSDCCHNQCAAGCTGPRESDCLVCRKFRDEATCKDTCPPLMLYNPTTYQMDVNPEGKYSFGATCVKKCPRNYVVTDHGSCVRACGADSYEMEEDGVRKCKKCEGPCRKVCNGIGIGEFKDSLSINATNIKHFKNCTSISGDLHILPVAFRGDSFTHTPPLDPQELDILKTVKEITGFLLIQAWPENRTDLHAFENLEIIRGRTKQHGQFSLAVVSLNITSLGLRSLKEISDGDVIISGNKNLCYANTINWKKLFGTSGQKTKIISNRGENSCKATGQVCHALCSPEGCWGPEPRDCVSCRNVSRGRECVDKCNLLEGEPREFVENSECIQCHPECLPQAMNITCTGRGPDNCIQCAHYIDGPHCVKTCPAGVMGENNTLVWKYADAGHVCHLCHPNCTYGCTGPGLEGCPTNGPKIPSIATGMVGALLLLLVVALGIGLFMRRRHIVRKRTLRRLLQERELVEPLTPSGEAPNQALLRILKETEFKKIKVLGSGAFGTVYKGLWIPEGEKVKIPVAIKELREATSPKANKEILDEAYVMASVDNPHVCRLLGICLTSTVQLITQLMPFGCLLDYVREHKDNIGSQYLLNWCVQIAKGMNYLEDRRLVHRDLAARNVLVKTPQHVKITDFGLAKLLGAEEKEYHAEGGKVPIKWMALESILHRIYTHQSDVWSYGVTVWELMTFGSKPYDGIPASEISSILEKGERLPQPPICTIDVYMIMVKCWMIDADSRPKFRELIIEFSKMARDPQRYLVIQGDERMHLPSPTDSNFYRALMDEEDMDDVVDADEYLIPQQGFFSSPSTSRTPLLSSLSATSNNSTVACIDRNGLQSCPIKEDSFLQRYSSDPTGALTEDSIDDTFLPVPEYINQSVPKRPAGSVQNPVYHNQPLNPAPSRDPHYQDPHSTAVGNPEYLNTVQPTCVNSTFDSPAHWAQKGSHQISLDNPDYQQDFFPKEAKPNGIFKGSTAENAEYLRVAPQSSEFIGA
- PROTOCOL: Inhibition of histidine-tagged recombinant EGFR cytoplasmic domain (amino acids 645-1186) (unknown origin) expressed in Sf9 cells assessed as reduction in enzyme autophosphorylation by DELFIA/time-resolved fluorometry
Answers are plain numbers, as −log10 of the molar value.

Please review the entries below; each comes with its answer.
1) COC(=O)C1=C(N)N(c2cccnc2)C2=C(C(=O)CCC2)C1c1cc2cc(Cl)ccc2n2nnnc12 (stereo not drawn) : 5.09
2) COc1ccc2c(c1)cc(C1C(C#N)=C(N)N(c3cccnc3)C3=C1C(=O)CCC3)c1nnnn12 (stereo not drawn) : 5.27
3) Cc1ccc2c(c1)cc(C1C(C#N)=C(N)N(c3cccnc3)C3=C1C(=O)CCC3)c1nnnn12 (stereo not drawn) : 4.98
4) CCOC(=O)C1=C(N)N(c2cccnc2)C2=C(C(=O)CCC2)C1c1cc2cc(OC)ccc2n2nnnc12 (stereo not drawn) : 6.70

Please give pIC50, item by item, for the list that follows.
1. CCOC(=O)C1=C(N)N(c2cccnc2)C2=C(C(=O)CCC2)C1c1cc2cc(Cl)ccc2n2nnnc12 (stereo not drawn)
2. COC(=O)C1=C(N)N(c2cccnc2)C2=C(C(=O)CCC2)C1c1cc2cc(C)ccc2n2nnnc12 (stereo not drawn)
3. N#CC1=C(N)N(c2cccnc2)C2=C(C(=O)CCC2)C1c1cc2ccccc2n2nnnc12 (stereo not drawn)

Solution:
1. 4.78
2. 5.37
3. 5.32

Problem: Quick check: pIC50 of COC(=O)C1=C(N)N(c2cccnc2)C2=C(C(=O)CCC2)C1c1cc2cc(OC)ccc2n2nnnc12 (stereo not drawn) ?
Solution: 5.89

---

- Test system: A549
- PROTOCOL: Antiproliferative activity against human A549 cells after 48 hrs by MTT assay
- Assay type: functional, cell-based
- CONDITION_LABEL: A549, 48 h
Kindly state IC50 for each of the entries shown.
One number for each entry, in µM.

1) N#CC1=C(N)N(c2cccnc2)C2=C(C(=O)CCC2)C1c1cc2cc(Cl)ccc2n2nnnc12 (stereo not drawn) : 7.8
2) COC(=O)C1=C(N)N(c2cccnc2)C2=C(C(=O)CCC2)C1c1cc2cc(Cl)ccc2n2nnnc12 (stereo not drawn) : 0.1
3) CCOC(=O)C1=C(N)N(c2cccnc2)C2=C(C(=O)CCC2)C1c1cc2ccccc2n2nnnc12 (stereo not drawn) : 0.4
4) CCOC(=O)C1=C(N)N(c2cccnc2)C2=C(C(=O)CCC2)C1c1cc2cc(C)ccc2n2nnnc12 (stereo not drawn) : 8.5

Please give IC50, item by item, for the list that follows.
1. C#Cc1cccc(Nc2ncnc3cc(OCCOC)c(OCCOC)cc23)c1
2. Cc1ccc2c(c1)cc(C1C(C#N)=C(N)N(c3cccnc3)C3=C1C(=O)CCC3)c1nnnn12 (stereo not drawn)
3. CCOC(=O)C1=C(N)N(c2cccnc2)C2=C(C(=O)CCC2)C1c1cc2cc(OC)ccc2n2nnnc12 (stereo not drawn)
4. COC(=O)C1=C(N)N(c2cccnc2)C2=C(C(=O)CCC2)C1c1cc2cc(OC)ccc2n2nnnc12 (stereo not drawn)

Solution:
0.1
18.1
15.4
6.4

---

- TARGET: Receptor tyrosine-protein kinase erbB-2 (Homo sapiens)
- Sequence (P04626 whole entry): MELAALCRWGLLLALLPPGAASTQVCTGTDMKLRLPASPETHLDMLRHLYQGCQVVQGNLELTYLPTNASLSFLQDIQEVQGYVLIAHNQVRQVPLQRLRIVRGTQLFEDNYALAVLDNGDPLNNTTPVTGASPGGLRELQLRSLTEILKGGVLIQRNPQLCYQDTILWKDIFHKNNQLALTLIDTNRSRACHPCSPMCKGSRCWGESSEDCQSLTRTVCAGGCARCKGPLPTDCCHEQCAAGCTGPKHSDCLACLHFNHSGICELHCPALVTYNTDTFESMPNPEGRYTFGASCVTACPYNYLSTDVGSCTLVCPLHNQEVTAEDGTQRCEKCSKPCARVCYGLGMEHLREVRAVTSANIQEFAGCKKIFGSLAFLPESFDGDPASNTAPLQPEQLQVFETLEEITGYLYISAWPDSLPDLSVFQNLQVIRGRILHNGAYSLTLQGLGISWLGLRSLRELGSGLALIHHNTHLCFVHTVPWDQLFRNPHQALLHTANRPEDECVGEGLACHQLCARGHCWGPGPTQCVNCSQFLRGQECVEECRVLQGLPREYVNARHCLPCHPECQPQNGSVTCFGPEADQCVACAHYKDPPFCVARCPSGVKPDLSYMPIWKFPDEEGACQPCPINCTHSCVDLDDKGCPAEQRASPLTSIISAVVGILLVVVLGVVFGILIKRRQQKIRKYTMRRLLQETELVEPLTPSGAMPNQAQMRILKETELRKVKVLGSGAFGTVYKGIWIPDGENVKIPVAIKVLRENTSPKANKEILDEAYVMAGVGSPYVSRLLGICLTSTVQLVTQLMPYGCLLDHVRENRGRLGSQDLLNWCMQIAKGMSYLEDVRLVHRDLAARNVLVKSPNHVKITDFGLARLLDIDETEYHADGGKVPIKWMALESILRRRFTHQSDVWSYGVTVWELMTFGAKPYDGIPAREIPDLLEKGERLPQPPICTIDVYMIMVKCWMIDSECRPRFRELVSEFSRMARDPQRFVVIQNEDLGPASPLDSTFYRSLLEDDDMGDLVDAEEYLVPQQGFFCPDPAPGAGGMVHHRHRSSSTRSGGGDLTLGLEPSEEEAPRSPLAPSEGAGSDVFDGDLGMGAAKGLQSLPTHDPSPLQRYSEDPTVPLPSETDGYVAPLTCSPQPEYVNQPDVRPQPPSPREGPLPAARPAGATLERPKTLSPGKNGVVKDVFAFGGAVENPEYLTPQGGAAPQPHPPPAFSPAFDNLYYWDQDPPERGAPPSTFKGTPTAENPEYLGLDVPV
- PROTOCOL: Inhibition of histidine-tagged recombinant HER2 (unknown origin) expressed in Sf9 cells assessed as reduction in enzyme autophosphorylation by DELFIA/time-resolved fluorometry
We label by threshold. Values of IC50 strictly beneath 5 µM are yes (1). Values of 5 µM and up are no (0).

Worked examples follow.
1. COC(=O)C1=C(N)N(c2cccnc2)C2=C(C(=O)CCC2)C1c1cc2cc(OC)ccc2n2nnnc12 (stereo not drawn) : yes (1)
2. CCOC(=O)C1=C(N)N(c2cccnc2)C2=C(C(=O)CCC2)C1c1cc2cc(Cl)ccc2n2nnnc12 (stereo not drawn) : no (0)
3. CCOC(=O)C1=C(N)N(c2cccnc2)C2=C(C(=O)CCC2)C1c1cc2cc(OC)ccc2n2nnnc12 (stereo not drawn) : yes (1)
4. COc1ccc2c(c1)cc(C1C(C#N)=C(N)N(c3cccnc3)C3=C1C(=O)CCC3)c1nnnn12 (stereo not drawn) : no (0)
5. CCOC(=O)C1=C(N)N(c2cccnc2)C2=C(C(=O)CCC2)C1c1cc2ccccc2n2nnnc12 (stereo not drawn) : yes (1)

Problem: For the molecule COC(=O)C1=C(N)N(c2cccnc2)C2=C(C(=O)CCC2)C1c1cc2ccccc2n2nnnc12 (stereo not drawn) , is IC50 under 5 µM?
Solution: yes (1)

Problem: For the molecule Cc1ccc2c(c1)cc(C1C(C#N)=C(N)N(c3cccnc3)C3=C1C(=O)CCC3)c1nnnn12 (stereo not drawn) , is IC50 under 5 µM?
Solution: no (0)

Problem: For the molecule N#CC1=C(N)N(c2cccnc2)C2=C(C(=O)CCC2)C1c1cc2ccccc2n2nnnc12 (stereo not drawn) , is IC50 under 5 µM?
Solution: no (0)
